Each recorded value in this set is attributed to patent US20090123479A1.

test_target: T1, recombinant human IL-23 (human, UniProt Q9NPF7 20-189; P29460 23-328)
T1 construct: also called hIL-23
T1 sequence 1: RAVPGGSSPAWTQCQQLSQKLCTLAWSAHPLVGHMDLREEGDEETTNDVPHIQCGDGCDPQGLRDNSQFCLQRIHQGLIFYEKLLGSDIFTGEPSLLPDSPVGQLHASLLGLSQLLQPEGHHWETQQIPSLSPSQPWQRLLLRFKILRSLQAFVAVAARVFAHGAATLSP
T1 sequence 2: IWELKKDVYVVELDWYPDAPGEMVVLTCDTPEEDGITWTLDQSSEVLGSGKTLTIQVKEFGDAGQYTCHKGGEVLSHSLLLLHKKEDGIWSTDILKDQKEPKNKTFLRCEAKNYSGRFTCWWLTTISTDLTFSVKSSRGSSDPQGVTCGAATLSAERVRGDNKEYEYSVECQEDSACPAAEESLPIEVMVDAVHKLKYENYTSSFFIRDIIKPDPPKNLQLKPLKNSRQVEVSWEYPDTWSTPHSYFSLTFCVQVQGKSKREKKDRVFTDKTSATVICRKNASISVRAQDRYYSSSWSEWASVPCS
test_name: SPR (Biacore T100), tissue culture supernatant antibody captured on anti-human IgG, IL-23 analyte
Collected kon values appear next to each entry.
Please respond with the number in M⁻¹ s⁻¹ and leave the unit unwritten.

>  <binder>
A11.5M4 (antibody, V domains shown) VH: QVQLVQSGAEVKKPGSSVKVSCKASGYTFASYGITWVRQAPGQGLEWMGENYPRSGNTYYNEKFKGRVTITADKSTSTAYMELSSLRSEDTAVYYCARAEFISTVVAPYYYALDYWGQGTLVTVSS VL: DIVMTQSPDSLAVSLGERATINCKASKKVTIFGSTSALHWYQQKPGQPPKLIYNGAKPESGVPDRFSGSGSGTDFTLTISSLQAEDVAVYYCLQNKEVPYTFGGGTKVEIK

>  <readout_units>
M⁻¹ s⁻¹

>  <kon>
1.45e+06

$$$$

// next item, kon requested
Give a short answer stating reported kon for A9M4 (antibody, V domains shown) VH: QVQLVQSGAEVKKPGSSVKVSCKASGYTFTSYGITWVRQAPGQGLEWMGEDYPRSGNTYYNEKFKGRVTITADKSTSTAYMELSSLRSEDTAVYYCARVEFISTVVAPYYYALDYWGQGTLVTVSS VL: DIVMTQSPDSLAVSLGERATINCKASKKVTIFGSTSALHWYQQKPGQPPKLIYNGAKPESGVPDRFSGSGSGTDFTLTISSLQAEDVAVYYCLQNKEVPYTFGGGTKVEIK .
2.83e+06
